- assay.target: HCV NS3/NS4a serine protease (Hepatitis C virus genotype 1b, UniProt P26663)
- Construct: amino terminus of the NS3 protease domain (amino acids 3-181) with a tetrapeptide linker; made in house; host or cells: E. coli
- Sequence (P26663 1013-1207, looked up, natural form): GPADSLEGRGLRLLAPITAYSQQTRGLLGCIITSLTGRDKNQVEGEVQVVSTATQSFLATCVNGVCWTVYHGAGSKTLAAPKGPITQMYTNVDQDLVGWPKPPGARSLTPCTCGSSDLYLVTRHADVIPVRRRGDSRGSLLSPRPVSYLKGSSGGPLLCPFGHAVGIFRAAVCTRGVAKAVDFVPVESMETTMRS
- measurement.protocol: Spectrophotometric assay for HCV protease inhibitory activity (chromogenic ester substrates)
- Assay type: biochemical, hepatitis C virus (strain 1b)
- measurement.parameters: Ki, Table 3; rating; single chain NS4A21-32-GSGS-NS3 3-181 protease, 30° C., pH 6.5
- Description: Spectrophotometric Assay: Spectrophotometric assays for the HCV serine protease were performed on the inventive compounds by following the procedure described by R. Zhang et al., Analytical Biochemistry, 270 (1999) 268-275, the disclosure of which is incorporated herein by reference. […] Protein concentrations were determined by the Biorad dye method using recombinant HCV protease standards previously quantified by amino acid analysis. […]
pKi: −log10 of the molar value.
measurement.label: pKi

Record summary for "CN(C[C@@H](NC(=O)N[C@H](C(=O)N1C[C@H]2[C@@H]([C@H]1C(=O)N[C@@H](CC(F)F)C(=O)NCCc1ccncc1)C2(C)C)C(C)(C)C)C(C)(C)C)S(C)(=O)=O" : reported pKi = > 7.00

Record summary for "CN(C[C@@H](NC(=O)N[C@H](C(=O)N1C[C@H]2[C@@H]([C@H]1C(=O)N[C@@H](CC(F)F)C(=O)NCCc1ccc(O)c(O)c1)C2(C)C)C(C)(C)C)C(C)(C)C)S(C)(=O)=O" : reported pKi = > 7.00

Record summary for "CN(C[C@@H](NC(=O)N[C@H](C(=O)N1C[C@H]2[C@@H]([C@H]1C(=O)N[C@@H](CC(F)F)C(=O)N[C@H]1C[C@H]1c1ccccc1)C2(C)C)C(C)(C)C)C(C)(C)C)S(C)(=O)=O" : reported pKi = > 7.00

Record summary for "CN(C[C@@H](NC(=O)N[C@H](C(=O)N1C[C@H]2[C@@H]([C@H]1C(=O)N[C@@H](CC(F)F)C(=O)NCC(c1ccccc1)c1ccccc1)C2(C)C)C(C)(C)C)C(C)(C)C)S(C)(=O)=O" : reported pKi = < 6.30

Record summary for "COc1cccc(CCNC(=O)[C@H](CC(F)F)NC(=O)[C@@H]2[C@@H]3[C@H](CN2C(=O)[C@@H](NC(=O)N[C@H](CN(C)S(C)(=O)=O)C(C)(C)C)C(C)(C)C)C3(C)C)c1" : reported pKi = > 7.00

---

- assay.target: HCV NS3/NS4a serine protease (Hepatitis C virus genotype 1b, UniProt P26663)
- Construct: amino terminus of the NS3 protease domain (amino acids 3-181) with a tetrapeptide linker; made in house; host or cells: E. coli
- measurement.protocol: Spectrophotometric assay for HCV protease inhibitory activity (chromogenic ester substrates)
- Type: biochemical, hepatitis C virus (strain 1b)
- measurement.parameters: Ki, Table 1; single chain NS4A21-32-GSGS-NS3 3-181 protease, 30° C., pH 6.5
measurement.label: pKi
pKi field: float, defined as -log10 of concentration (mol/L).

The compound CC(C)(C)[C@H](NC(=O)N[C@H](CN1CCCS1(=O)=O)C(C)(C)C)C(=O)N1C[C@H]2[C@@H](C1C(=O)NC(CC(F)F)C(=O)NCCc1ccc(C(=O)O)cc1Cl)C2(C)C (stereo partly shown) , tested on HCV NS3/NS4a serine protease (Hepatitis C virus genotype 1b, UniProt P26663), showed pKi of 7.68

The compound "COC(=O)c1ccc(CCNC(=O)[C@H](CC(F)F)NC(=O)[C@@H]2[C@@H]3[C@H](CN2C(=O)[C@@H](NC(=O)N[C@H](CN2CCCS2(=O)=O)C(C)(C)C)C(C)(C)C)C3(C)C)c(Cl)c1" , tested on HCV NS3/NS4a serine protease (Hepatitis C virus genotype 1b, UniProt P26663), showed pKi of 7.52

The compound "CC(C)[C@H](NC(=O)N[C@H](C(=O)N1C[C@H]2[C@@H]([C@H]1C(=O)N[C@@H](CC(F)F)C(=O)NCCc1ccc(C(=O)O)cc1)C2(C)C)C(C)(C)C)C(=O)O" , tested on HCV NS3/NS4a serine protease (Hepatitis C virus genotype 1b, UniProt P26663), showed pKi of 7.05

The compound "COC(=O)c1ccc(CCNC(=O)[C@H](CC(F)F)NC(=O)[C@@H]2[C@@H]3[C@H](CN2C(=O)[C@@H](NC(=O)NC2(CS(C)(=O)=O)CCCCC2)C(C)(C)C)C3(C)C)cc1" , tested on HCV NS3/NS4a serine protease (Hepatitis C virus genotype 1b, UniProt P26663), showed pKi of 7.40

The compound CN(C[C@@H](NC(=O)N[C@H](C(=O)N1C[C@H]2[C@@H](C1C(=O)NC(CC(F)F)C(=O)NCCc1ccc(C(=O)O)cc1)C2(C)C)C(C)(C)C)C(C)(C)C)S(C)(=O)=O (stereo partly shown) , tested on HCV NS3/NS4a serine protease (Hepatitis C virus genotype 1b, UniProt P26663), showed pKi of 7.62

The compound CC(C)(C)[C@H](NC(=O)NC1(CS(C)(=O)=O)CCCCC1)C(=O)N1C[C@H]2[C@@H](C1C(=O)NC(CC(F)F)C(=O)NCCc1ccc(C(N)=O)cc1)C2(C)C (stereo partly shown) , tested on HCV NS3/NS4a serine protease (Hepatitis C virus genotype 1b, UniProt P26663), showed pKi of 7.42

The compound "COC(=O)c1ccc(CCNC(=O)[C@H](CC(F)F)NC(=O)[C@@H]2[C@@H]3[C@H](CN2C(=O)[C@@H](NC(=O)N[C@H](CN(C)S(C)(=O)=O)C(C)(C)C)C(C)(C)C)C3(C)C)c(Cl)c1" , tested on HCV NS3/NS4a serine protease (Hepatitis C virus genotype 1b, UniProt P26663), showed pKi of 7.62

The compound CC(C)(C)[C@H](NC(=O)N[C@H](CN1CCCS1(=O)=O)C(C)(C)C)C(=O)N1C[C@H]2[C@@H](C1C(=O)NC(CC(F)F)C(=O)NCCc1ccc(C(N)=O)cc1Cl)C2(C)C (stereo partly shown) , tested on HCV NS3/NS4a serine protease (Hepatitis C virus genotype 1b, UniProt P26663), showed pKi of 7.38

The compound CC(C)(C)[C@H](NC(=O)NC1(CS(C)(=O)=O)CCCCC1)C(=O)N1C[C@H]2[C@@H](C1C(=O)N[C@@H](CC(F)F)C(=O)NCCc1ccc(C(=O)O)cc1)C2(C)C (stereo partly shown) , tested on HCV NS3/NS4a serine protease (Hepatitis C virus genotype 1b, UniProt P26663), showed pKi of 7.54

The compound "CC(C)(C)[C@H](NC(=O)N[C@H](C(=O)N1C[C@H]2[C@@H]([C@H]1C(=O)N[C@@H](CC(F)F)C(=O)NCCc1ccc(C(=O)O)cc1)C2(C)C)C(C)(C)C)C(=O)O" , tested on HCV NS3/NS4a serine protease (Hepatitis C virus genotype 1b, UniProt P26663), showed pKi of 7.05

The compound "COC(=O)c1ccc(CCNC(=O)[C@H](CC(F)F)NC(=O)[C@@H]2[C@@H]3[C@H](CN2C(=O)[C@@H](NC(=O)N[C@H](CN(C)S(C)(=O)=O)C(C)(C)C)C(C)(C)C)C3(C)C)cc1" , tested on HCV NS3/NS4a serine protease (Hepatitis C virus genotype 1b, UniProt P26663), showed pKi of 7.66

The compound "CC(C)[C@@H](CN(C)S(=O)(=O)c1ccccc1)NC(=O)N[C@H](C(=O)N1C[C@H]2[C@@H]([C@H]1C(=O)N[C@@H](CC(F)F)C(=O)NCCc1ccc(C(=O)O)cc1)C2(C)C)C(C)(C)C" , tested on HCV NS3/NS4a serine protease (Hepatitis C virus genotype 1b, UniProt P26663), showed pKi of 7.30

The compound "COC(=O)c1ccc(CCNC(=O)[C@H](CC(F)F)NC(=O)[C@@H]2[C@@H]3[C@H](CN2C(=O)[C@@H](NC(=O)N[C@H](CN(C)S(=O)(=O)c2ccccc2)C(C)C)C(C)(C)C)C3(C)C)cc1" , tested on HCV NS3/NS4a serine protease (Hepatitis C virus genotype 1b, UniProt P26663), showed pKi of 7.00

---

- assay.target: HCV NS3/NS4a serine protease (Hepatitis C virus genotype 1b, UniProt P26663)
- Construct: amino terminus of the NS3 protease domain (amino acids 3-181) with a tetrapeptide linker; made in house; host or cells: E. coli
- measurement.protocol: Spectrophotometric assay for HCV protease inhibitory activity (chromogenic ester substrates)
- Format: biochemical, hepatitis C virus (strain 1b)
- measurement.parameters: Ki Rating, Table 2; single chain NS4A21-32-GSGS-NS3 3-181 protease, 30° C., pH 6.5
pKi: −log10 of the molar value.
Could you please report measured pKi for the items listed next?

Record summary for CC1(C)C[C@H]2[C@H](CN(C(=O)[C@@H](NC(=O)OCc3ccccc3)C3CCCCC3)[C@@H]2C(=O)N[C@@H](CC(F)F)C(=O)O)O1 [Example 161] : reported pKi = < 6.30

Record summary for CC(C)(C)OC(=O)N[C@H](C(=O)N1C[C@H]2[C@@H]([C@H]1C(=O)NC(CC(F)F)C(=O)O)C2(C)C)C(C)(C)C (some centres unmarked) [Example 167] : reported pKi = < 6.30

Record summary for CC(C)[C@H](NC(=O)N[C@H](C(=O)N1C[C@H]2[C@@H]([C@H]1C(=O)N[C@@H](CC(F)F)C(=O)NCCc1ccc(C(=O)N(C)C)cc1)C2(C)C)C(C)(C)C)C(=O)O [Example 131] : reported pKi = 6.30 to 7.00

Record summary for CC(C)[C@H](NC(=O)N[C@H](C(=O)N1C[C@H]2[C@@H]([C@H]1C(=O)NC(CC(F)F)C(=O)O)C2(C)C)C(C)(C)C)C(=O)OC(C)(C)C (some centres unmarked) [Example 159] : reported pKi = < 6.30

Record summary for CC(C)[C@H](NC(=O)N[C@H](C(=O)N1C[C@H]2[C@@H]([C@H]1C(=O)N[C@@H](CC(F)F)C(=O)NCCc1ccc(C(=O)N(C)C)cc1)C2(C)C)C(C)(C)C)C(=O)OC(C)(C)C [Example 141] : reported pKi = 6.30 to 7.00
